assay_notes: physchem
assay_conditions: octan-1-ol/water, pH 7.4, LogD7.4
Reported logD values for a set of molecules
API doc: respond with a numeric literal and nothing else, no unit.

Illustrative cases are given below, each with its answer.
> print(dat)
                                   molecule  result.type  value.reported
1               Cc1cccc(Nc2ccccc2C(=O)O)c1C         logD            1.89
2  C[C@H](c1nc2ncccc2c(=O)n1-c1ccc(Cl)cc1)N(CC1CCS(=O)(=O)CC1)C(=O)Cc1ccc(C(F)(F)F)c(F)c1         logD             2.9
3  CCC(CC)NC(=O)c1cn(-c2ccccc2)nc1NS(=O)(=O)c1ccc(C)cc1         logD            2.51
4  N#Cc1c(N)nc2c(c1N)CC(COc1ccccc1)O2 (stereo not given)         logD            2.08
5  Nc1nc(SCc2ccccc2)nc2c1ncn2[C@@H]1O[C@H](CO)[C@@H](O)[C@H]1O         logD            1.24

Hello, please tell me recorded logD for this one: CCN1CCC[C@H](CN2CCN(C(=O)Nc3ccc(Cl)c(Cl)c3)CC2)C1
1.86

Hello, please tell me recorded logD for this one: NC1=NC(c2ccc(Cl)c(Cl)c2)CC(=O)N1 (stereo not given)
1.46

Hello, please tell me recorded logD for this one: COc1ccc(-c2nc3c(OCC4CCNCC4)c(Br)cnc3[nH]2)cc1
1.55

Hello, please tell me recorded logD for this one: O=C(O)COc1ccc(Cl)cc1CN1CCN(S(=O)(=O)Cc2ccccc2)CC1
0.33

Hello, please tell me recorded logD for this one: Cc1c(Cl)ccc(OC2CCN(C3CCN(C(=O)c4cccc(S(C)(=O)=O)c4)CC3)CC2)c1Cl
3.33

----------
Reported logD values for a set of compounds
assay_notes: physchem
assay_conditions: octan-1-ol/water, pH 7.4, LogD7.4
API doc: respond with a numeric literal and nothing else, no unit.

Illustrative cases are given below, each with its answer.
> print(dat)
                                   compound  value.reported
1  O=c1c(-c2ccc(O)cc2)coc2cc(O)cc(O)c12 [GENISTEIN]            3.06
2  Cc1ccc(S(=O)(=O)NC(=O)NN2CCCCCC2)cc1 [TOLAZAMIDE]            0.01

Hello, please tell me recorded logD for this one: O=S(=O)(c1cccc(-c2cn3cccnc3n2)c1)N1CCOCC1
1.3

Hello, please tell me recorded logD for this one: CNc1cccc(CCCc2ccc(C[C@H](NC(=O)c3c(Cl)cccc3Cl)C(=O)O)s2)n1
0.78

Hello, please tell me recorded logD for this one: C[C@H]1O[C@@H](n2cnc3c(N)nc(OC4CCOC4)nc32)[C@H](O)[C@@H]1O (stereo partly specified)
-0.06

Hello, please tell me recorded logD for this one: COc1c(N2CCNC(C)C2)c(F)cc2c(=O)c(C(=O)O)cn(C3CC3)c12 (stereo unspecified) [GATIFLOXACIN]
-0.82

Hello, please tell me recorded logD for this one: CNC(=O)c1ccc2c(=O)cc(-c3cccnc3)[nH]c2c1
1.01

Hello, please tell me recorded logD for this one: Cc1cc(S(=O)(=O)N2CCN(C)CC2)ccc1-c1cnc(N)c(C(=O)Nc2cccnc2)n1
2.6

Hello, please tell me recorded logD for this one: CCc1cccc(CC)c1NC(=O)N1Cc2n[nH]c(NC(=O)c3ccc(N4CCN(C)CC4)cc3)c2C1 [PHA-680632]
3.31

Hello, please tell me recorded logD for this one: O=C1Nc2ccc(S(=O)(=O)N3CCC[C@H]3CNc3ccccc3)cc2C1=O
2.4

Hello, please tell me recorded logD for this one: COc1cc(N2CCN(C(C)=O)CC2)ccc1Nc1ncc(C(F)(F)F)c(-c2cnc3ccccn23)n1
3.7

Hello, please tell me recorded logD for this one: CC(C)C[C@H](CO)Nc1nc(SCc2ccccc2)nc2[nH]c(=O)sc12
4.2

Hello, please tell me recorded logD for this one: N[C@@H](CC(=O)N1CCn2c(nnc2C(F)(F)F)C1)Cc1cc(F)c(F)cc1F [SITAGLIPTIN]
0.31

Hello, please tell me recorded logD for this one: Nc1ccc2ncccc2c1
1.33

Hello, please tell me recorded logD for this one: Oc1ccc(CCc2ccc(O)cc2)cc1
3.3

Hello, please tell me recorded logD for this one: COc1cc(Nc2cc(N3CCOCC3)nc(N[C@@H](C)c3ncc(F)cn3)n2)n[nH]1
2.18
